Catalogue of IC50 by FRET Assay values
study system: catalytic domain of MMP-14 (cdMMP-14) (human, UniProt P50281 114-287, limits assumed, biotinylated (Sulfo-NHS-LC-Biotin) where immobilised via streptavidin)
measurement notes: cell-based or functional assay
Give just the number in nM; leave the unit off.

Examples from the recorded data:
{"binder": "Fab 3G9 (Fab, V domains shown, not shown: His tag at the C-terminus of the heavy chain) VH: EVQLVESGGGLVQPGGSLRLSCAASGFNIYYSSIHWVRQAPGKGLEWVASIYSYSGYTYYADSVKGRFTISADTSKNTAYLQMNSLRAEDTAVYYCARATNEKFRRKSLQVRLLMRSWLAYAMDYWGQGTLVTVSS VL: DIQMTQSPSSLSASVGDRVTITCRASQSVSSAVAWYQQKPGKAPKLLIYSASSLYSGVPSRFSGSRSGTDFTLTISSLQPEDFATYYCQQASYAASALITFGQGTKVEIKR", "endpoint name": "IC50 by FRET Assay", "unit abbreviation": "nM", "result value": 390}
{"binder": "Fab 3D9 (Fab, V domains shown, not shown: His tag at the C-terminus of the heavy chain) VH: EVQLVESGGGLVQPGGSLRLSCAASGFNIYSSSIHWVRQAPGKGLEWVASIYSSYGYTYYADSVKGRFTISADTSKNTAYLQMNSLRAEDTAVYYCARRLMAYHGSCSSRLCQTAISPQRYAMDYWGQGTLVTVSS VL: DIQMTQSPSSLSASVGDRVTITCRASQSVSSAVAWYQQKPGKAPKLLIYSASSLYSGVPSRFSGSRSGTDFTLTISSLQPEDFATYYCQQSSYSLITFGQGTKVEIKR", "endpoint name": "IC50 by FRET Assay", "unit abbreviation": "nM", "result value": 61}

# ---- query binder ----
Problem: I'd like to know its IC50 by FRET Assay. The binder in question is Fab 2B5 (Fab, V domains shown, not shown: His tag at the C-terminus of the heavy chain) VH: EVQLVESGGGLVQPGGSLRLSCAASGFNLSYSSMHWVRQAPGKGLEWVASIYPYSGYTYYADSVKGRFTISADTSKNTAYLQMNSLRAEDTAVYYCARIGVNAWAVKMSQRMLATRGSGWYVMDYWGQGTLVTVSS VL: DIQMTQSPSSLSASVGDRVTITCRASQSVSSAVAWYQQKPGKAPKLLIYSASSLYSGVPSRFSGSRSGTDFTLTISSLQPEDFATYYCQQSSSYPYSPITFGQGTKVEIKR
Solution: 240
